Numbers sourced from patent US20240417406A1.

Target: human PDHK2 (hPDHK2) (Homo sapiens (Human))
Assay: Inhibitory action of PDHK2 activity (PDH/hPDHK2 complex, residual PDH activity by NADH absorbance at 340 nm)
Details: FLAG-tagged recombinant hPDHK2 with porcine heart PDH complex; PDHK reaction 45 min at room temperature
Description: In the case of human PDHK2 (hPDHK2, NCBI Reference Database Accession number NM_002611.4), modified hPDHK2 cDNA wherein FLAG-Tag sequence was added to the N terminal of hPDHK2 cDNA clone (pReceiver-M01/PDK2-GeneCopoeia) as the base was prepared by polymerase chain reaction (PCR) and ligated to the NdeI/EcoRI site of pET-17b vector (Merck KGaA, Catalog Number 69663-3). […] The absorbance of each well at 340 nm was measured using a microplate reader to detect NADH produced by the PDH reaction. […]
pIC50: −log10 of the molar value.
quantity-name: pIC50

molecule="C[C@H]1Cn2nc(C34CCC(CO)(CC3)OC4)cc2-c2cnc([C@@](C)(O)C(F)(F)F)n21 [Example 85]" quantity_name=pIC50 relation_qualifier== test_value=7.78
molecule="C[C@H]1Cn2nc(C(F)(F)F)cc2-c2cnnc([C@@](C)(O)C(F)(F)F)c21 [Example 100]" quantity_name=pIC50 relation_qualifier== test_value=7.95
molecule="COCCOc1cc2n(n1)C[C@H](C)n1c-2cnc1[C@@](C)(O)C(F)(F)F [Example 68]" quantity_name=pIC50 relation_qualifier== test_value=7.82
molecule="C[C@H]1Cn2c(nnc2C(F)F)-c2onc([C@@](C)(O)C(F)(F)F)c21 [Example 25]" quantity_name=pIC50 relation_qualifier== test_value=7.80
molecule="C[C@H]1Cc2nn([C@H]3C[C@@](C)(C#N)C3)cc2-c2onc([C@@](C)(O)C(F)(F)F)c21 (racemic) [Example 58]" quantity_name=pIC50 relation_qualifier== test_value=7.69
molecule="C[C@H]1Cn2nc(C(F)(F)F)cc2-c2cnnc([C@@](C)(O)C(F)(F)F)c21 (racemic) [Example 99]" quantity_name=pIC50 relation_qualifier== test_value=7.63
molecule="C[C@H]1Cc2nn([C@H]3C[C@](C)(C#N)C3)cc2-c2onc([C@@](C)(O)C(F)(F)F)c21 (racemic) [Example 54]" quantity_name=pIC50 relation_qualifier== test_value=8.14
molecule="C[C@H]1Cn2nc(OCC#N)cc2-c2onc([C@@](C)(O)C(F)(F)F)c21 (racemic) [Example 42]" quantity_name=pIC50 relation_qualifier== test_value=7.72
molecule="COC(=O)C12CCC(c3cc4n(n3)C[C@H](C)c3c-4cnnc3[C@@](C)(O)C(F)(F)F)(CC1)CC2 (racemic) [Example 102]" quantity_name=pIC50 relation_qualifier=< test_value=7.00
molecule="C[C@H]1Cn2c(nnc2C2(C(F)(F)F)CC2)-c2onc([C@@](C)(O)C(F)(F)F)c21 [Example 2]" quantity_name=pIC50 relation_qualifier== test_value=7.72
molecule="COc1cc2n(n1)C[C@H](C)n1c-2cnc1[C@@](C)(O)C(F)(F)F [Example 67]" quantity_name=pIC50 relation_qualifier== test_value=7.94
molecule="C[C@H]1Cc2c(cnn2C2CC(C#N)C2)-c2onc([C@@](C)(O)C(F)(F)F)c21 (stereo in doubt) [Example 26]" quantity_name=pIC50 relation_qualifier== test_value=7.74
molecule="C[C@H]1Cn2c(nnc2C2(F)CC2)-c2onc([C@@](C)(O)C(F)(F)F)c21 [Example 8]" quantity_name=pIC50 relation_qualifier== test_value=7.93
molecule="C[C@H]1Cc2c(cnn2[C@H]2CC[C@](C)(O)CC2)-c2onc([C@@](C)(O)C(F)(F)F)c21 (racemic) [Example 56]" quantity_name=pIC50 relation_qualifier== test_value=7.97
molecule="C[C@H]1Cn2nc(C34CCC(C#N)(C3)C4)cc2-c2cnc([C@@](C)(O)C(F)(F)F)n21 [Example 91]" quantity_name=pIC50 relation_qualifier== test_value=7.63
